system: Staphylococcus aureus; assay: microbe, parasite or virus in culture; type: functional; conditions: ATCC 25923
Description: Antibacterial activity against Staphylococcus aureus ATCC 25923 after 12 to 18 hrs by twofold dilution method
For each record, write down the corresponding MIC.
Numbers only, in µg/mL.

molecule	u	MIC
CCCCn1n[n+](C)c2c1C(=O)c1ccccc1C2=O.[Cl-]	µg/mL	2
C[n+]1nn(Cc2ccccc2)c2c1C(=O)c1ccccc1C2=O.[Cl-]	µg/mL	2

Here are 7 compounds. What values of MIC were reported for them?
1. CCCCCCCCCCCCn1n[n+](C)c2c1C(=O)c1ccccc1C2=O.[Cl-]
2. NC[C@@H]1O[C@H](O[C@H]2[C@@H](O)[C@H](O[C@@H]3[C@@H](O)[C@H](N)C[C@H](N)[C@H]3O[C@H]3O[C@H](CN)[C@@H](O)[C@H](O)[C@H]3N)O[C@@H]2CO)[C@H](N)[C@@H](O)[C@@H]1O
3. C[n+]1nn(C2CCNCC2)c2c1C(=O)c1ccccc1C2=O.[Cl-]
4. C[n+]1nn(Cc2ccccn2)c2c1C(=O)c1ccccc1C2=O.[Cl-]
5. CCCCCCCCn1n[n+](C)c2c1C(=O)c1ccccc1C2=O.[Cl-]
6. CCn1n[n+](C)c2c1C(=O)c1ccccc1C2=O.[Cl-]
7. NC[C@H]1O[C@H](O[C@H]2[C@H](O)[C@@H](O[C@H]3O[C@H](CO)[C@@H](O)[C@H](N)[C@H]3O)[C@H](N)C[C@@H]2N)[C@H](O)[C@@H](O)[C@@H]1O

Ans.
0.032
1
2
2
0.032
1
1
